Cited source: patent US20110059889A1

target: T1, soluble human FcRn (shFcRn) (human, UniProt P55899 24-297; P61769 21-119); assay: SPR pH 6; 4-PyridylAla in place of His
T1 construct: Biotinylated for the ELISA, amine-coupled to a CM5 chip for SPR; also called biotinylated shFcRn
T1 sequence (P55899 24-297 limits assumed, chain 1 of 2): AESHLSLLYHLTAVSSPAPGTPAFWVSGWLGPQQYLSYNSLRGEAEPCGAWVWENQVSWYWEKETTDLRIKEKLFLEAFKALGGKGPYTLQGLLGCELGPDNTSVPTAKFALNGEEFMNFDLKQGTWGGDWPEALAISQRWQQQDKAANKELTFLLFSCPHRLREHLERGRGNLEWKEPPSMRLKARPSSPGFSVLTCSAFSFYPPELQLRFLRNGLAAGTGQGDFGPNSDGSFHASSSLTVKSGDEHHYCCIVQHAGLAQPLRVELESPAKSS
T1 sequence (P61769 21-119 limits assumed, chain 2 of 2): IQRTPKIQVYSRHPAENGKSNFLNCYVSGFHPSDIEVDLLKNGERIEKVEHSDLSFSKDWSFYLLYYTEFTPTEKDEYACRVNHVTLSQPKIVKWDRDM
attribute.measured: Kd (nM)
Respond with the bare value in nM.

[Q] Need Kd of RFCTGXFGGLYPC (Pen 3; 4-PyridylAla 6; Sar 9; NMeLeu 10; disulfide 3-13; C-terminal amide) [Peptide No. 268] , thanks.
[A] 67
